test system: Plasmodium falciparum; test: Confirmatory screen in NF54 nanoGlo assay, in single point, at 2uM, 72h; type: functional, Erythrocyte; conditions: timepoint 72 hour
About 420 (8.8%) of roughly 4,800 compounds showed an effect of 50% or more. The full list was thinned out, with strong results kept by preference.
Just a reminder that ties go to condition not met: only % Inhibition strictly below 60% counts as condition met.

[
  {
    "Structure string": "Cc1nc2ccc(CNC3CCN(c4ccc(F)c(F)c4)CC3)cc2[nH]1",
    "Group": "condition met"
  },
  {
    "Structure string": "CN(C)C1(CNc2nc(C(F)(F)F)nc3cc4c(cc23)OCO4)CCCCCC1",
    "Group": "condition met"
  },
  {
    "Structure string": "Cc1ccc2[nH]c(CNC[C@@H](CO)C3CCC3)cc2c1C",
    "Group": "condition not met"
  },
  {
    "Structure string": "Cc1noc(-c2ccnc(NC[C@@H](c3ccccn3)N3CCOCC3)c2)n1",
    "Group": "condition not met"
  },
  {
    "Structure string": "CCN1CCC(N2CCC(C(=O)NCCc3ccc(OC(F)(F)F)cc3)CC2)CC1",
    "Group": "condition met"
  },
  {
    "Structure string": "Cc1nc(-c2ccccn2)nc(NC2CCN(CC(F)F)CC2)c1C",
    "Group": "condition met"
  },
  {
    "Structure string": "CCOc1cc(C(=O)NC2CCN(CC3CCCC3)CC2)cc(-c2ccccc2)c1OC",
    "Group": "condition not met"
  },
  {
    "Structure string": "c1cncc(-c2ccc(CNC3CCN(Cc4cccs4)CC3)cc2)c1",
    "Group": "condition met"
  },
  {
    "Structure string": "CCc1oc2ccccc2c1CNC[C@H](O)c1ccc(Cl)cc1",
    "Group": "condition not met"
  },
  {
    "Structure string": "CCOc1cc2nccc(N3C[C@H]4CN(C)C[C@H]4C3)c2cc1OCC",
    "Group": "condition not met"
  },
  {
    "Structure string": "Fc1ccc(N2CCC(N[C@@H]3COC4(CCNCC4)C3)CC2)cc1F",
    "Group": "condition met"
  },
  {
    "Structure string": "O=C1CN(C(=O)c2ccnc3ccccc23)CCN1Cc1ccccc1F",
    "Group": "condition met"
  },
  {
    "Structure string": "O=C(NCCN1CCCCC1)c1cccc(-c2cnc3ccc(F)cn23)c1",
    "Group": "condition met"
  },
  {
    "Structure string": "OC1(c2ccc(Cl)cc2)CCN(C[C@@H]2CCCN3CCCC[C@H]23)CC1",
    "Group": "condition not met"
  },
  {
    "Structure string": "C[C@H]1CCCN(CCNC(=O)c2ccc(-c3ccc4c(=O)[nH]ccc4c3)cc2)C1",
    "Group": "condition met"
  },
  {
    "Structure string": "CN(C)C1CCN(CCN[C@H]2CCc3ccc(F)cc32)CC1",
    "Group": "condition not met"
  },
  {
    "Structure string": "N[C@H]1CC[C@@H](NC2CCN(c3ccc(F)c(F)c3)CC2)CC1",
    "Group": "condition met"
  },
  {
    "Structure string": "CCN1CCN([C@H]2CCN(c3ccnc4ccncc34)C2)CC1",
    "Group": "condition not met"
  },
  {
    "Structure string": "CCCN(CCN1CCN(CC)CC1)c1nc(-c2ccccn2)nc2c1CCC2",
    "Group": "condition met"
  },
  {
    "Structure string": "Cc1cc(NC[C@H](O)COc2ccc(F)cc2)nc2ccccc12",
    "Group": "condition not met"
  }
]
